- EXPERIMENTAL_TARGET: LRRK2 G2019S (Homo sapiens, UniProt Q5S007, G2019S)
- Sequence (Q5S007 whole entry G2019S): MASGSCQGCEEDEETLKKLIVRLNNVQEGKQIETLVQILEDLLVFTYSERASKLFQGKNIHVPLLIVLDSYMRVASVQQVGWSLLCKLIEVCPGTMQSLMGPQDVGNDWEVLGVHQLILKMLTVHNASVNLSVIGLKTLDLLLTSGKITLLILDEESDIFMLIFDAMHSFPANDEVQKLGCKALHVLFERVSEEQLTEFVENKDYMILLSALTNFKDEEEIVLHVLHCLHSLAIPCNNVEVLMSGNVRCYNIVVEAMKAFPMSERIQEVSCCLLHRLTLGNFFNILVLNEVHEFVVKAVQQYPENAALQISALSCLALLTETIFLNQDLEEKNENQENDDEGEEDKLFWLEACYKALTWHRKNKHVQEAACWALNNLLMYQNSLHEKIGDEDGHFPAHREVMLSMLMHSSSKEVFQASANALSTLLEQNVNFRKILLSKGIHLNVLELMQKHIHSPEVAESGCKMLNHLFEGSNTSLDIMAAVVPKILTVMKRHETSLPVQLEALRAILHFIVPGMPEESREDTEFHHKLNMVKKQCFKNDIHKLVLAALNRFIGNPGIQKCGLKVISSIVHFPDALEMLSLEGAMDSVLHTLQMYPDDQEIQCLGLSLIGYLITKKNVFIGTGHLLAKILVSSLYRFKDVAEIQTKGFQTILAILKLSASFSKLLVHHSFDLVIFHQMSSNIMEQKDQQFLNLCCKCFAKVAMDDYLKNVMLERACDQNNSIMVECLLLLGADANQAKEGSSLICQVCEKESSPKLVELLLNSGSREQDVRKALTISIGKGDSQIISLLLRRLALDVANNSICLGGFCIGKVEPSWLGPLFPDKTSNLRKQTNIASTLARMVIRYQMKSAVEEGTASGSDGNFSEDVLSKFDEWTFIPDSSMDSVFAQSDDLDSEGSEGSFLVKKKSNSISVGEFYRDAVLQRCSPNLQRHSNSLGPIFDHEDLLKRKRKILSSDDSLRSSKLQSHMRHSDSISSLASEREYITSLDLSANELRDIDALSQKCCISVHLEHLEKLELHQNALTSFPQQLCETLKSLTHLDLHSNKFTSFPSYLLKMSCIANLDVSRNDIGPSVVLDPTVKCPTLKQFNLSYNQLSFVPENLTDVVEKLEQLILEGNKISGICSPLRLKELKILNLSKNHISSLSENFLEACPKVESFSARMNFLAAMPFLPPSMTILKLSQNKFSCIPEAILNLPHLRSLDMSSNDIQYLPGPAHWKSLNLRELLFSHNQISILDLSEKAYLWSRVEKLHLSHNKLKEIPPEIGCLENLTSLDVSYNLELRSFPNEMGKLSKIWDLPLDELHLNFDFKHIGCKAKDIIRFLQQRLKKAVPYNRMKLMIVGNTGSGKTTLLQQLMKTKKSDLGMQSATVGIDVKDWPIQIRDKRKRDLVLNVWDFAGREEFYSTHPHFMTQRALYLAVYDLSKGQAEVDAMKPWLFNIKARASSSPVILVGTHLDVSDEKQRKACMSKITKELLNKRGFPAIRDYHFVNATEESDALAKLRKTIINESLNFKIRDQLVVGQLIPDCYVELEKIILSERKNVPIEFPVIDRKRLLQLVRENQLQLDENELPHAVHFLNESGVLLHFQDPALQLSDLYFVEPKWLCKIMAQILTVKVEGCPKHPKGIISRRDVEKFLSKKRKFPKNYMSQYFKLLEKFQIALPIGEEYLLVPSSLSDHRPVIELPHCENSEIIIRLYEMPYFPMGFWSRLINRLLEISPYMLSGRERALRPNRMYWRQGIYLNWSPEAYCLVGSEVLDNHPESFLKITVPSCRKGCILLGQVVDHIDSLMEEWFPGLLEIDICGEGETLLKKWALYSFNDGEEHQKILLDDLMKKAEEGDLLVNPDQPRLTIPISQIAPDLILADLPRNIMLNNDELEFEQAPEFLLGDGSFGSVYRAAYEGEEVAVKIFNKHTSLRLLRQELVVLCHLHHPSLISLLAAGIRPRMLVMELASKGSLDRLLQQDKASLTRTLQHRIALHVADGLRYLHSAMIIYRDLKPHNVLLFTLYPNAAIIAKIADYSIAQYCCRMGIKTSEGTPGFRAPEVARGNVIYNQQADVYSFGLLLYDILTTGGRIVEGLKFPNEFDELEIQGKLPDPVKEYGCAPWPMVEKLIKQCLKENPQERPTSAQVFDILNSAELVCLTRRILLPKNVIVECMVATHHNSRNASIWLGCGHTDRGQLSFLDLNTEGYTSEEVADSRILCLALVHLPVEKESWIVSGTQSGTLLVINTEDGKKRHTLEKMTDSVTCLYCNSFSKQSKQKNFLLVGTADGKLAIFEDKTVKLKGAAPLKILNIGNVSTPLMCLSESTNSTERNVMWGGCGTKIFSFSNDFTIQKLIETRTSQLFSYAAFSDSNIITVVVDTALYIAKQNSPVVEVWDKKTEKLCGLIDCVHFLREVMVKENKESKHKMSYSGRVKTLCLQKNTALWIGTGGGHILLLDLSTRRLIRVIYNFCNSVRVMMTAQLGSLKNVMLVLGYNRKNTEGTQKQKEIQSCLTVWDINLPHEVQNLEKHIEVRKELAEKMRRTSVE
- EXPERIMENT: LRRK2 G2019S Km ATP LanthaScreen assay
- Format: biochemical
- CONDITION_SET: read-out: LRRK2 pIC50 (converted)
- Source text: Unless otherwise noted, all reactions are magnetically stirred. Unless otherwise noted, when diethyl ether is used in the experiments described below, it is Fisher ACS certified material and is stabilized with BHT. Unless otherwise noted, “concentrated” and/or “solvent removed under reduced pressure” means evaporating the solvent from a solution or mixture using a rotary evaporator or vacuum pump. […]
ENDPOINT_NAME: IC50 (nM)
Numbers only, in nM.

| MOLECULE | EXPERIMENTAL_TARGET | MEASUREMENT |
| --- | --- | --- |
| CN1CCC(C(=O)Nc2cc3cc(C4CCN(C5(C)COCC5O)CC4)c(Cl)cc3cn2)CC1 (single isomer, unassigned) | LRRK2 G2019S (Homo sapiens, UniProt Q5S007, G2019S) | 0.38 |
| O=C(Nc1cc2cc(C3CCN(C4COC4)CC3)c(Cl)cc2cn1)[C@@H]1C[C@@H](O)[C@H](F)C1 | LRRK2 G2019S (Homo sapiens, UniProt Q5S007, G2019S) | 9.33 |
| CC1(N2CCC(c3cc4cc(NC(=O)C5CC5F)ncc4cc3Cl)CC2)COCC1O (stereo not shown) | LRRK2 G2019S (Homo sapiens, UniProt Q5S007, G2019S) | 1.55 |
| CC1(N2CCC(c3cc4cc(NC(=O)[C@@H]5CCCO5)ncc4cc3Cl)CC2)COCC1O (stereo partly shown) | LRRK2 G2019S (Homo sapiens, UniProt Q5S007, G2019S) | 0.513 |
| CC1(N2CCC(c3cc4cc(NC(=O)C5(Cn6ccnc6)CC5)ncc4cc3Cl)CC2)COCC1O (stereo not shown) | LRRK2 G2019S (Homo sapiens, UniProt Q5S007, G2019S) | 3.31 |

Hi! Can you tell me IC50 for each of these molecules?
1. Cc1cc2cnc(NC(=O)C3CC3c3cnn(C)c3)cc2cc1C1CC12CC2 (single isomer, unassigned) [Ex-16.3]
2. CC1CC1C(=O)Nc1cc2cc(C3CCN(C4COC4)CC3)c(Cl)cc2cn1 (single isomer, unassigned) [Ex-9.4]

Output:
1: 10.5; 2: 5.75
